Listing: Emax of selected molecules
biological target: NMDAR2A expressing HEK cell membranes (Homo sapiens, UniProt Q05586+Q12879); construct: expressed in transfected cells; host or cells: HEK cells (membrane extract); assay: NMDAR agonist assay, [3H]MK-801 binding, NMDAR2A; format: biochemical; conditions: read-out: NMDAR2A: % maximal [3H]MK-801 binding relative to 1 mM glycine, 50 μM glutamate; relative to 1 mM glycine
Sequence (Q12879 23-1464, other chains not shown): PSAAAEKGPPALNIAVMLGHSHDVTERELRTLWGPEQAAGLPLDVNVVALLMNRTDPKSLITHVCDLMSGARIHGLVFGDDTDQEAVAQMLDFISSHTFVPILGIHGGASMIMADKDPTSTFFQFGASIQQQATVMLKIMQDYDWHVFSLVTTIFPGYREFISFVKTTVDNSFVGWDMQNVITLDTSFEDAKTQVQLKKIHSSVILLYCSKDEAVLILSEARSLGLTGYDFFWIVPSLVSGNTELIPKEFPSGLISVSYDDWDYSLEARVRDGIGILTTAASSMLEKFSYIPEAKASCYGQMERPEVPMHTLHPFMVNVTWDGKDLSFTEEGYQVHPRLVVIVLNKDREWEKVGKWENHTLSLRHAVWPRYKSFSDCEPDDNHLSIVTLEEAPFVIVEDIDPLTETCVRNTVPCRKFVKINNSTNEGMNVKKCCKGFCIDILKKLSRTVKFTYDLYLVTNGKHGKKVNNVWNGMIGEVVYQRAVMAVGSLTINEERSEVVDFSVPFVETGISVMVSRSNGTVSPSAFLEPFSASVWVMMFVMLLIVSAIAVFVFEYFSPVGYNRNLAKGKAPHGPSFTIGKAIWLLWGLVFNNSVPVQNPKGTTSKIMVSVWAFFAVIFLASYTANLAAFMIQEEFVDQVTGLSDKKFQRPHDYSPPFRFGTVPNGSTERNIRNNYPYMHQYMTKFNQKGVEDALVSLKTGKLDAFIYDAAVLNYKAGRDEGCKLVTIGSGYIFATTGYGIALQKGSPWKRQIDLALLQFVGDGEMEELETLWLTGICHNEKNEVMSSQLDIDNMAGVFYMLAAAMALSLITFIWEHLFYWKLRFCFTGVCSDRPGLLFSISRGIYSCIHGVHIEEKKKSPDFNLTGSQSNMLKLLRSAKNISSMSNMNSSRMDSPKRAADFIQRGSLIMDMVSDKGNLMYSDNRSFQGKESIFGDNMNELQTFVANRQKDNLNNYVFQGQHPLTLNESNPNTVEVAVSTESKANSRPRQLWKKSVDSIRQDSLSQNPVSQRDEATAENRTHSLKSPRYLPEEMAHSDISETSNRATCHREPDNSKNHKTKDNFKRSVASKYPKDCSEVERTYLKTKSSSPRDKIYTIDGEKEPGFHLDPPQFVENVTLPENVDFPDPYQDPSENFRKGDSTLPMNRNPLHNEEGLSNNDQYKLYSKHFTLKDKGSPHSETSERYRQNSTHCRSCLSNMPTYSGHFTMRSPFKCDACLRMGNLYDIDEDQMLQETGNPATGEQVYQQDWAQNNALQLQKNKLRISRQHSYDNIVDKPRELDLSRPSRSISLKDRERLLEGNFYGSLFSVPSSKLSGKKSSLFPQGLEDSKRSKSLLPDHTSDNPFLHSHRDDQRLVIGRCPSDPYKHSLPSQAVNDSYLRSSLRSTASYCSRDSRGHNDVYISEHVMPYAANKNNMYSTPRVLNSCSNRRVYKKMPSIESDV

Take a look at these entries with their results.
[
  {
    "Molecule": "CC(C)CN1[C@@]2(CC[C@@]13CNC3=O)CNC2=O",
    "Emax": "< 100%"
  },
  {
    "Molecule": "CN1C2(CCC13CNC3=O)CNC2=O (stereo not shown)",
    "Emax": "0%"
  },
  {
    "Molecule": "CC(C)CN1C2(CCC13CNC3=O)CNC2=O (stereo not shown)",
    "Emax": "0%"
  }
]

Okay, next one:
I have this molecule here, CC(C)CN1[C@]2(CC[C@]13CNC3=O)CNC2=O , and I need its recorded Emax.
< 100%
